Taken from patent US8367829B2.

Reported IC50 is given for each of the following compounds.
- experimental-system: human recombinant beta-2 adrenoreceptors (Homo sapiens, UniProt P07550)
- Construct: expressed in transfected cells; host or cells: CHO cells
- Sequence (P07550 whole entry): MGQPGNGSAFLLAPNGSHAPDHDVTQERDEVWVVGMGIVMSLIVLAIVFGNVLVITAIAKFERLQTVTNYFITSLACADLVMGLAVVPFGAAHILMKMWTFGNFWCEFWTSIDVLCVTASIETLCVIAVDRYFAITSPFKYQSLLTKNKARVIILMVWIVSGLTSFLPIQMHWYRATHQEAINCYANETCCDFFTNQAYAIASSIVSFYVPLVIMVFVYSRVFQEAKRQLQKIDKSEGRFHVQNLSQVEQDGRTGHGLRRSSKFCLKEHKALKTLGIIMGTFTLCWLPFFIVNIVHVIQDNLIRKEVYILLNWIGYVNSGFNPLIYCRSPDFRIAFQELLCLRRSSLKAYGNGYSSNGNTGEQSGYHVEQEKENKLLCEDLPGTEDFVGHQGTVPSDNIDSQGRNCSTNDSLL
- test-name: Beta-2 adrenoceptor binding assay, displacement of [3H](−)CGP-12177
- condition-notes: CHO cells expressing human beta-2 adrenoreceptors, [3H](−)CGP-12177 0.3 nM, 120 min

Example entries begin here.
{"columns": ["compound", "measurement-type", "readout-value"],
 "data": [
  ["CCc1nc2c(cnn2CC)c(NC2CCOCC2)c1CNC(=O)Nc1ccc(C#CCCCNC[C@H](O)c2ccc(O)c3[nH]c(=O)ccc23)cc1 [Example 11]", "IC50", "< 100 nM"],
  ["CCc1nc2c(cnn2CC)c(NC2CCOCC2)c1CNC(=O)Nc1ccc(C#CCCCNC[C@H](O)c2ccc(O)c3c2OCC(=O)N3)cc1 [Example 15]", "IC50", "< 100 nM"],
  ["CCc1nc2c(cnn2CC)c(NC2CCOCC2)c1CNC(=O)c1cccc(CC(C)NC[C@H](O)c2ccc(O)c(CO)c2)c1 (stereo partly drawn) [Example 2]", "IC50", "> 300 nM"],
  ["CCc1nc2c(cnn2CC)c(NC2CCOCC2)c1CNC(=O)c1cccc(CNC[C@H](O)c2ccc(O)c(CO)c2)c1 [Example 7]", "IC50", "> 300 nM"]
]}

Request: Look up IC50 for this compound: CCc1nc2c(cnn2CC)c(NC2CCOCC2)c1CNC(=O)CCCCCCCNC[C@H](O)c1ccc(O)c2[nH]c(=O)ccc12 [Example 10]
Result: > 300 nM

Request: Now this one: CCc1nc2c(cnn2CC)c(NC2CCOCC2)c1CNC(=O)Nc1ccc(CCCCOCCCCCCNC[C@H](O)c2ccc(O)c3[nH]c(=O)ccc23)cc1 [Example 14]
Result: < 100 nM

Request: Now this one: CCc1nc2c(cnn2CC)c(NC2CCOCC2)c1CNC(=O)c1cccc(CC(C)(C)NC[C@H](O)c2ccc(O)c3[nH]c(=O)ccc23)c1 [Example 4]
Result: < 100 nM

Request: Now this one: CCc1nc2c(cnn2CC)c(NC2CCOCC2)c1CNC(=O)c1cccc(CNC[C@H](O)c2ccc(O)c3[nH]c(=O)ccc23)c1 [Example 5]
Result: < 300 nM

Request: Now this one: CCc1nc2c(cnn2CC)c(NC2CCOCC2)c1CNC(=O)c1cccc(CC(C)NC[C@H](O)c2ccc(O)c3[nH]c(=O)ccc23)c1 (stereo partly drawn) [Example 1]
Result: < 100 nM

Request: Now this one: CCc1nc2c(cnn2CC)c(NC2CCOCC2)c1CNc1c(Nc2ccc(CCCCCNC[C@H](O)c3ccc(O)c4[nH]c(=O)ccc34)cc2)c(=O)c1=O [Example 13]
Result: < 100 nM

Request: Now this one: CCc1nc2c(cnn2CC)c(NC2CCOCC2)c1CNC(=O)c1ccc(CNC[C@H](O)c2ccc(O)c(CO)c2)cc1 [Example 8]
Result: > 300 nM

Request: Now this one: CCc1nc2c(cnn2CC)c(NC2CCOCC2)c1CNC(=O)c1cccc(CC(C)(C)NC[C@H](O)c2ccc(O)c(CO)c2)c1 [Example 3]
Result: < 300 nM

Request: Now this one: CCc1nc2c(cnn2CC)c(NC2CCOCC2)c1CNC(=O)Nc1ccc(CCCCCNC[C@H](O)c2ccc(O)c3[nH]c(=O)ccc23)cc1 [Example 12]
Result: < 100 nM

Request: Now this one: CCc1nc2c(cnn2CC)c(NC2CCOCC2)c1CNC(=O)c1ccc(CNC[C@H](O)c2ccc(O)c3[nH]c(=O)ccc23)cc1 [Example 6]
Result: > 300 nM

Request: Now this one: CCc1nc2c(cnn2CC)c(NC2CCOCC2)c1CNC(=O)c1ccc(CCCCCNC[C@H](O)c2ccc(O)c3[nH]c(=O)ccc23)cc1 [Example 9]
Result: < 100 nM
